Test system: L929
assayName: Tested in vitro for the inhibition of cell growth of murine L929 cells (ATCC CCL 1)
Format: functional, cell-based
setupConditions: Mus musculus
pIC50: −log10 of the molar value.

{"compound": "C(C#Cc1ncnc2c1ncn2C1CCCCO1)#Cc1ncnc2c1ncn2C1CCCCO1 (configuration not stated)", "inequalitySymbol": "=", "pIC50": 6.00}
{"compound": "CCCCCn1cnc2c(C#Cc3ncnc4c3ncn4CCCCC)ncnc21", "inequalitySymbol": "=", "pIC50": 5.52}
{"compound": "C(#Cc1ncnc2c1ncn2C1CCCCO1)c1ncnc2c1ncn2Cc1ccccc1 (configuration not stated)", "inequalitySymbol": "=", "pIC50": 5.72}
{"compound": "CCCCCn1cnc2c(C#CC#Cc3ncnc4c3ncn4CCCCC)ncnc21", "inequalitySymbol": "=", "pIC50": 5.89}
{"compound": "C(C#Cc1ncnc2c1ncn2Cc1ccccc1)#Cc1ncnc2c1ncn2Cc1ccccc1", "inequalitySymbol": "=", "pIC50": 5.20}
{"compound": "C(#Cc1ncnc2c1ncn2Cc1ccccc1)c1ncnc2c1ncn2Cc1ccccc1", "inequalitySymbol": "=", "pIC50": 5.28}
{"compound": "O=c1[nH]c(=O)n([C@H]2C[C@H](O)[C@@H](CO)O2)cc1F", "inequalitySymbol": "<", "pIC50": 4.60}

---

Test system: L1210
assayName: Tested in vitro for the inhibition of cell growth of mouse leukemia L1210 cell (ATCC CCL 219)
Format: functional, cell-based
Under this convention, TRUE denotes IC50 strictly below 900 nM and FALSE denotes IC50 at or above 900 nM.

{"compound": "C(C#Cc1ncnc2c1ncn2C1CCCCO1)#Cc1ncnc2c1ncn2C1CCCCO1 (configuration not stated)", "tgt": "L1210", "class": "TRUE"}
{"compound": "CCCCCn1cnc2c(C#Cc3ncnc4c3ncn4CCCCC)ncnc21", "tgt": "L1210", "class": "FALSE"}
{"compound": "O=c1[nH]c(=O)n([C@H]2C[C@H](O)[C@@H](CO)O2)cc1F [FLOXURIDINE]", "tgt": "L1210", "class": "TRUE"}
{"compound": "C(C#Cc1ncnc2c1ncn2Cc1ccccc1)#Cc1ncnc2c1ncn2Cc1ccccc1", "tgt": "L1210", "class": "TRUE"}
{"compound": "CCCCCn1cnc2c(C#CC#Cc3ncnc4c3ncn4CCCCC)ncnc21", "tgt": "L1210", "class": "TRUE"}
{"compound": "C(#Cc1ncnc2c1ncn2Cc1ccccc1)c1ncnc2c1ncn2Cc1ccccc1", "tgt": "L1210", "class": "FALSE"}

---

Let's look at some molecules and their measured IC50.
Test system: CCRF-CEM
assayName: Tested in vitro for the inhibition of cell growth of human T lymphoblastoid CCRF-CEM cell line (ATCC CCL 119)
Type: functional, cell-based

{"molecule": "CCCCCn1cnc2c(C#CC#Cc3ncnc4c3ncn4CCCCC)ncnc21", "tgt": "CCRF-CEM", "IC50 [nM]": 370}
{"molecule": "C(#Cc1ncnc2c1ncn2Cc1ccccc1)c1ncnc2c1ncn2Cc1ccccc1", "tgt": "CCRF-CEM", "IC50 [nM]": 900}
{"molecule": "O=c1[nH]c(=O)n([C@H]2C[C@H](O)[C@@H](CO)O2)cc1F", "tgt": "CCRF-CEM", "IC50 [nM]": 500}
{"molecule": "CCCCCn1cnc2c(C#Cc3ncnc4c3ncn4CCCCC)ncnc21", "tgt": "CCRF-CEM", "IC50 [nM]": 360}
{"molecule": "C(#Cc1ncnc2c1ncn2C1CCCCO1)c1ncnc2c1ncn2Cc1ccccc1 (configuration not stated)", "tgt": "CCRF-CEM", "IC50 [nM]": 320}
{"molecule": "C(C#Cc1ncnc2c1ncn2Cc1ccccc1)#Cc1ncnc2c1ncn2Cc1ccccc1", "tgt": "CCRF-CEM", "IC50 [nM]": 430}
{"molecule": "C(C#Cc1ncnc2c1ncn2C1CCCCO1)#Cc1ncnc2c1ncn2C1CCCCO1 (configuration not stated)", "tgt": "CCRF-CEM", "IC50 [nM]": 580}
